System: CAL-51
assay.remarks: drug sensitivity score (DSS), CellTiter-Blue viability (DSS (AUC-based score)); higher = stronger viability inhibition; extreme values may be limits of the assay
details: incubation time: 72 h
measure: drug sensitivity score

smiles.structure	observed
C[C@]12CC[C@@H]3c4ccc(OC(=O)N(CCCl)CCCl)cc4CC[C@H]3[C@@H]1CC[C@@H]2O	0
Cn1cnc2c(F)c(Nc3ccc(Br)cc3Cl)c(C(=O)NOCCO)cc21	0.877
CC[C@@H]1C(=O)OC[C@@H]1Cc1cncn1C	0
CC(C)(C)c1cnc(CSc2cnc(NC(=O)C3CCNCC3)s2)o1	13.8
COc1cc2c(cc1O)CC[C@@H]1[C@@H]2CC[C@]2(C)[C@@H](O)CC[C@@H]12	5.78

###

System: DU-4475
assay.remarks: normalised response (% of control), CellTiter-Glo; higher = more viable cells (100 = DMSO, 0 = benzethonium chloride kill control)
details: incubation time: 72 h
Lab note: anything with normalised response at or over 90% counts as met; the rest go in not met.

compound	discrete.label
CC1(C)CNc2cc(NC(=O)c3cccnc3NCc3ccncc3)ccc21 [Motesanib] (1000 nM)	met
CC(=O)c1c(C)c2cnc(Nc3ccc(N4CCNCC4)cn3)nc2n(C2CCCC2)c1=O [Palbociclib] (1 nM)	met
CC[C@@H]1C(=O)OC[C@@H]1Cc1cncn1C [Pilocarpine] (4 nM)	met
Cn1cnc2c(F)c(Nc3ccc(Br)cc3Cl)c(C(=O)NOCCO)cc21 [Selumetinib] (1000 nM)	not met
Cc1sc2c(c1C)C(c1ccc(Cl)cc1)=N[C@@H](CC(=O)OC(C)(C)C)c1nnc(C)n1-2 [(+)JQ1] (1000 nM)	not met
CC(=O)O[C@@]12CO[C@@H]1C[C@H](O)[C@@]1(C)C(=O)[C@H](O)C3=C(C)[C@@H](OC(=O)[C@H](O)[C@@H](NC(=O)OC(C)(C)C)c4ccccc4)C[C@@](O)([C@@H](OC(=O)c4ccccc4)[C@H]21)C3(C)C [Docetaxel] (0.1 nM)	met
CC1=C2C[C@H]3[C@@H](CC=C4C[C@@H](O)CC[C@@]43C)[C@@H]2CC[C@]12O[C@@H]1C[C@H](C)CN[C@H]1[C@H]2C [Cyclopamine] (1 nM)	met
Cc1ccc([N+](=O)[O-])cc1S(=O)(=O)N(C)/N=C/c1cnc2ccc(Br)cn12 [PIK-75] (1000 nM)	not met

###

Below: a set of entries, each annotated with reported normalised viability.
Test system: CAL-85-1
assay.remarks: normalised viability (% of control), CellTiter-Blue; higher = more viable cells (about 100 = DMSO control)
details: 3 nM; incubation time: 72 h
measure: normalised viability (%)

smiles.structure	observed
COc1cc(F)c(F)c(Nc2ccc(I)cc2F)c1NS(=O)(=O)C1(C[C@H](O)CO)CC1	95.2
Oc1ncnc2[nH]ncc12	109
C[C@]1(O)C[C@@H](c2nc(-c3ccc4ccc(-c5ccccc5)nc4c3)c3c(N)nccn32)C1	97.3
COc1cc2c(cc1O)CC[C@@H]1[C@@H]2CC[C@]2(C)[C@@H](O)CC[C@@H]12	91.4
O=P(O)(O)C(O)(Cn1ccnc1)P(=O)(O)O	91.6

###

Test system: DU-4475
assay.remarks: normalised response (% of control), CellTiter-Glo; higher = more viable cells (100 = DMSO, 0 = benzethonium chloride kill control)
details: incubation time: 72 h
The entries below are paired with their reported normalised response.

molecule	normalised response, %
CC(=O)N(O)CCCCCNC(=O)CCC(=O)N(O)CCCCCNC(=O)CCC(=O)N(O)CCCCCN [Deferoxamine] (1 nM)	95.6
C[C@]1(O)C[C@@H](c2nc(-c3ccc4ccc(-c5ccccc5)nc4c3)c3c(N)nccn32)C1 [Linsitinib] (1 nM)	98
O=C1CN2Cc3c(ccc(Cl)c3Cl)N=C2N1 [Anagrelide] (10 nM)	101
CC1(C)CCC(CN2CCN(c3ccc(C(=O)NS(=O)(=O)c4ccc(NCC5CCOCC5)c([N+](=O)[O-])c4)c(Oc4cnc5[nH]ccc5c4)c3)CC2)=C(c2ccc(Cl)cc2)C1 [ABT-199] (10 nM)	96.2
CC[C@@H]1C(=O)OC[C@@H]1Cc1cncn1C [Pilocarpine] (40 nM)	102

###

Tested on: SK-BR-3
assay.remarks: normalised viability (% of control), CellTiter-Blue; higher = more viable cells (about 100 = DMSO control)
details: 100 nM; incubation time: 72 h

compound	tgt	normalised viability
Nc1ncn([C@@H]2O[C@H](CO)[C@@H](O)[C@H]2O)c(=O)n1	SK-BR-3	89.3%
CC1=C2C[C@H]3[C@@H](CC=C4C[C@@H](O)CC[C@@]43C)[C@@H]2CC[C@]12O[C@@H]1C[C@H](C)CN[C@H]1[C@H]2C	SK-BR-3	90.8%
Cc1sc2c(c1C)C(c1ccc(Cl)cc1)=N[C@@H](CC(=O)OC(C)(C)C)c1nnc(C)n1-2 [(+)JQ1]	SK-BR-3	98.3%
CC(=O)c1c(C)c2cnc(Nc3ccc(N4CCNCC4)cn3)nc2n(C2CCCC2)c1=O	SK-BR-3	78%

###

Examples of compounds with documented normalised viability follow.
System: CAL-148
assay.remarks: normalised viability (% of control), CellTiter-Blue; higher = more viable cells (100 = DMSO, 0 = benzethonium chloride kill control)
details: incubation time: 72 h
measure: normalised viability (%)

compound	tgt	unit.annotation	observed
CC(C)(C)c1cnc(CSc2cnc(NC(=O)C3CCNCC3)s2)o1 [SNS-032] (1 nM)	CAL-148	%	113
Oc1ncnc2[nH]ncc12 [Allopurinol] (1 nM)	CAL-148	%	119
Cc1sc2c(c1C)C(c1ccc(Cl)cc1)=N[C@@H](CC(=O)OC(C)(C)C)c1nnc(C)n1-2 [(+)JQ1] (1 nM)	CAL-148	%	108

###

Recorded measurements of normalised viability, one per entry
System: DU-4475
assay.remarks: normalised viability (% of control), CellTiter-Blue; higher = more viable cells (about 100 = DMSO control)
details: 30 nM; incubation time: 72 h

compound	normalised viability
CC1(C)CNc2cc(NC(=O)c3cccnc3NCc3ccncc3)ccc21	79.6%
C[C@]1(O)C[C@@H](c2nc(-c3ccc4ccc(-c5ccccc5)nc4c3)c3c(N)nccn32)C1	104%
CC1=C2C[C@H]3[C@@H](CC=C4C[C@@H](O)CC[C@@]43C)[C@@H]2CC[C@]12O[C@@H]1C[C@H](C)CN[C@H]1[C@H]2C	103%
O=C1CN2Cc3c(ccc(Cl)c3Cl)N=C2N1 [Anagrelide]	79.5%

###

Tested on: CAL-51
assay.remarks: normalised viability (% of control), CellTiter-Blue; higher = more viable cells (100 = DMSO, 0 = benzethonium chloride kill control)
details: incubation time: 72 h
Examples of molecules with documented normalised viability follow.

molecule	normalised viability / %
COc1cc(F)c(F)c(Nc2ccc(I)cc2F)c1NS(=O)(=O)C1(C[C@H](O)CO)CC1 [RDEA119] (1 nM)	91.8
Nc1ncn([C@@H]2O[C@H](CO)[C@@H](O)[C@H]2O)c(=O)n1 [Azacitidine] (1 nM)	102
Cn1cnc2c(F)c(Nc3ccc(Br)cc3Cl)c(C(=O)NOCCO)cc21 [Selumetinib] (1 nM)	113
CC(=O)c1c(C)c2cnc(Nc3ccc(N4CCNCC4)cn3)nc2n(C2CCCC2)c1=O (1 nM)	104
Oc1ncnc2[nH]ncc12 [Allopurinol] (1 nM)	92.5

###

Test system: BT-549
assay.remarks: normalised response (% of control), CellTiter-Glo; higher = more viable cells (100 = DMSO, 0 = benzethonium chloride kill control)
details: incubation time: 72 h

compound	normalised response
Cc1sc2c(c1C)C(c1ccc(Cl)cc1)=N[C@@H](CC(=O)OC(C)(C)C)c1nnc(C)n1-2 [(+)JQ1] (10 nM)	96.2%
Cc1ccc([N+](=O)[O-])cc1S(=O)(=O)N(C)/N=C/c1cnc2ccc(Br)cn12 [PIK-75] (1000 nM)	2.37%
Cn1cnc2c(F)c(Nc3ccc(Br)cc3Cl)c(C(=O)NOCCO)cc21 [Selumetinib] (1000 nM)	96.5%
CC(=O)c1c(C)c2cnc(Nc3ccc(N4CCNCC4)cn3)nc2n(C2CCCC2)c1=O [Palbociclib] (1000 nM)	102%
CC(C)(C)c1cnc(CSc2cnc(NC(=O)C3CCNCC3)s2)o1 [SNS-032] (10 nM)	95.1%
CC(=O)c1c(C)c2cnc(Nc3ccc(N4CCNCC4)cn3)nc2n(C2CCCC2)c1=O [Palbociclib] (1 nM)	100%
CC1(C)CCC(CN2CCN(c3ccc(C(=O)NS(=O)(=O)c4ccc(NCC5CCOCC5)c([N+](=O)[O-])c4)c(Oc4cnc5[nH]ccc5c4)c3)CC2)=C(c2ccc(Cl)cc2)C1 [ABT-199] (10 nM)	95.7%

###

System: BT-474
assay.remarks: normalised viability (% of control), CellTiter-Blue; higher = more viable cells (about 100 = DMSO control)
details: 100 nM; incubation time: 72 h

compound	normalised viability
Cn1cc(C2=Nc3cc(NC(=O)C(N)C4CCCCC4)cc4c3C2=CNNC4=O)cn1 (stereo not given)	108%
COc1cc2c(cc1O)CC[C@@H]1[C@@H]2CC[C@]2(C)[C@@H](O)CC[C@@H]12	121%
Oc1ncnc2[nH]ncc12	106%
CC1=C2C[C@H]3[C@@H](CC=C4C[C@@H](O)CC[C@@]43C)[C@@H]2CC[C@]12O[C@@H]1C[C@H](C)CN[C@H]1[C@H]2C	124%
Cn1cnc2c(F)c(Nc3ccc(Br)cc3Cl)c(C(=O)NOCCO)cc21	94.5%
